The origin of these recorded values is patent EP4818187A1.

- Test system: human ovarian cancer SK-OV-3
- measurement-notes: Biological Example 5: in vivo xenograft model of human ovarian cancer SK-OV-3
- Design: species or system Balb/c-nu nude mice
- conditions: SK-OV-3 xenograft, nude mice, 0.8 mg/kg i.v. qw×3
Provide the recorded Final body weight change (%) for the entries that follow.
Numbers only, in %.

Use these answered entries as a reference point.
CC[C@H](C)[C@@H]([C@@H](CC(=O)N1CCC[C@H]1[C@H](OC)[C@@H](C)C(=O)N[C@H](C)[C@@H](O)c1ccccc1)OC)N(C)C(=O)[C@@H](NC(=O)[C@H](C(C)C)[N+](C)(CC)Cc1ccc(O[C@@H]2O[C@H](C(=O)[O-])[C@@H](O)[C@H](O)[C@H]2O)cc1OCc1cn(CCCOCC(=O)Nc2ccc(-c3ccc(/N=N/c4ccc5c(S(=O)(=O)[O-])cc(S(=O)(=O)[O-])c(N)c5c4O)c(C)c3)cc2C)nn1)C(C)C.[Na+].[Na+] (some centres unmarked) = 5.7
CC[C@H](C)[C@@H]([C@@H](CC(=O)N1CCC[C@H]1[C@H](OC)[C@@H](C)C(=O)N[C@H](C)[C@@H](O)c1ccccc1)OC)N(C)C(=O)[C@@H](NC(=O)[C@H](C(C)C)[N+](C)(C)Cc1ccc(O[C@@H]2O[C@H](C(=O)[O-])[C@@H](O)[C@H](O)[C@H]2O)cc1OCc1cn(CCCOCC(=O)Nc2ccc(-c3ccc(/N=N/c4ccc5c(S(=O)(=O)[O-])cc(S(=O)(=O)[O-])c(N)c5c4O)c(C)c3)cc2C)nn1)C(C)C.[Na+].[Na+] = 4.3

Please go through the list and note Final body weight change (%) for each compound.
1. CC[C@H](C)[C@@H]([C@@H](CC(=O)N1CCC[C@H]1[C@H](OC)[C@@H](C)C(=O)N[C@H](C)[C@@H](O)c1ccccc1)OC)N(C)C(=O)[C@@H](NC(=O)[C@H](C(C)C)[N+](C)(CC)Cc1ccc(O[C@@H]2O[C@H](C(=O)[O-])[C@@H](O)[C@H](O)[C@H]2O)cc1OCc1cn(CCCCCC(=O)Nc2ccc(-c3ccc(/N=N/c4ccc5c(S(=O)(=O)[O-])cc(S(=O)(=O)[O-])c(N)c5c4O)c(C)c3)cc2C)nn1)C(C)C.[Na+].[Na+] (some centres unmarked)
2. CC[C@H](C)[C@@H]([C@@H](CC(=O)N1CCC[C@H]1[C@H](OC)[C@@H](C)C(=O)N[C@H](C)[C@@H](O)c1ccccc1)OC)N(C)C(=O)[C@@H](NC(=O)[C@H](C(C)C)[N+](C)(CC)Cc1ccc(O[C@@H]2O[C@H](C(=O)[O-])[C@@H](O)[C@H](O)[C@H]2O)cc1OCc1cn(CCOCCC(=O)Nc2ccc(-c3ccc(/N=N/c4ccc5c(S(=O)(=O)[O-])cc(S(=O)(=O)[O-])c(N)c5c4O)c(C)c3)cc2C)nn1)C(C)C.[Na+].[Na+] (some centres unmarked)
3. CC[C@H](C)[C@@H]([C@@H](CC(=O)N1CCC[C@H]1[C@H](OC)[C@@H](C)C(=O)N[C@H](C)[C@@H](O)c1ccccc1)OC)N(C)C(=O)[C@@H](NC(=O)[C@H](C(C)C)[N+](C)(C)Cc1ccc(O[C@@H]2O[C@H](C(=O)[O-])[C@@H](O)[C@H](O)[C@H]2O)cc1OCc1cn(CCOCCC(=O)Nc2ccc(-c3ccc(/N=N/c4ccc5c(S(=O)(=O)[O-])cc(S(=O)(=O)[O-])c(N)c5c4O)c(C)c3)cc2C)nn1)C(C)C.[Na+].[Na+]

1. 4.4
2. 4.6
3. 5.3
